Would you mind telling me the reported relative viability of each entry?
Test system: BEN
MEASUREMENT_PROTOCOL: relative viability (nuclei count vs DMSO), 5 days (fraction); higher = more cells survive
EXPERIMENTAL_CONDITIONS: first compound 0.05 µM
Give bare numbers.

Some solved entries appear below for comparison.
COMPOUND	relative viability
Nc1ccn([C@@H]2O[C@H](CO)[C@@H](O)[C@@H]2O)c(=O)n1 [Cytarabine] + CC1(C)CCC(c2ccc(Cl)cc2)=C(CN2CCN(c3ccc(C(=O)NS(=O)(=O)c4ccc(N[C@H](CCN5CCOCC5)CSc5ccccc5)c(S(=O)(=O)C(F)(F)F)c4)cc3)CC2)C1 [Navitoclax] (partner 0.5 µM)	0.159
Nc1ccn([C@@H]2O[C@H](CO)[C@@H](O)[C@@H]2O)c(=O)n1 [Cytarabine] + Cc1nc(NC(=O)N2CCC[C@H]2C(N)=O)sc1-c1ccnc(C(C)(C)C(F)(F)F)c1 [Alpelisib] (partner 2 µM)	0.634
Nc1ccn([C@@H]2O[C@H](CO)[C@@H](O)[C@@H]2O)c(=O)n1 [Cytarabine] + CS(=O)(=O)CCNCc1ccc(-c2ccc3ncnc(Nc4ccc(OCc5cccc(F)c5)c(Cl)c4)c3c2)o1 [Lapatinib] (partner 2 µM)	0.414

Now examine the next entry.
I would be grateful if you could share the reported relative viability for COc1cc2nccc(Oc3ccc(NC(=O)Nc4cc(C)on4)c(Cl)c3)c2cc1OC [Tivozanib] + N=C(N)NC(=N)NCCc1ccccc1 [Phenformin] (partner 250 µM) .
0.224
